The origin of these recorded values is patent US8426429B2.

biological target: β-secretase (BACE) (Homo sapiens); construct: purchased Panvera; assay: BACE FS1 % Inhibition Assay; assay type: biochemical; settings: 3 μM test compound
measurement_kind: % Inhibition (FS) (%)

The examples below pair each entry with its known result.
* NC1=Nc2ccc(Oc3ccccc3)cc2CN1CCNC(=O)C(c1ccccc1)c1ccccc1 | 108
* CCCN(CC1CC1)C(=O)c1cccc(CN2Cc3cc(Oc4ccccc4)ccc3N=C2N)c1 | 32
* CN(C(=O)c1cccc(CN2Cc3cc(-c4ccccc4OCc4ccccc4)ccc3N=C2N)c1)C1CCCCC1 | 48

(I) CN(C(=O)c1cccc(CN2Cc3cc(Oc4ccccc4-c4ccccc4)ccc3N=C2N)c1)C1CCCCC1
(II) Cc1cccc(Nc2ccc3c(c2)CN(Cc2cccc(C(=O)N(C)C4CCCCC4)c2)C(N)=N3)c1
Challenge: Of the two listed items, I and II , which carries the larger % Inhibition (FS) figure? In your reply, give the label of the chosen option.
Response given: II

----------
molecular target: β-secretase (BACE) (Homo sapiens, UniProt P56817); construct: purchased Panvera; assay: BACE FS1 % Inhibition Assay; assay type: biochemical; details: 1 μM test compound
Sequence (P56817 46-501): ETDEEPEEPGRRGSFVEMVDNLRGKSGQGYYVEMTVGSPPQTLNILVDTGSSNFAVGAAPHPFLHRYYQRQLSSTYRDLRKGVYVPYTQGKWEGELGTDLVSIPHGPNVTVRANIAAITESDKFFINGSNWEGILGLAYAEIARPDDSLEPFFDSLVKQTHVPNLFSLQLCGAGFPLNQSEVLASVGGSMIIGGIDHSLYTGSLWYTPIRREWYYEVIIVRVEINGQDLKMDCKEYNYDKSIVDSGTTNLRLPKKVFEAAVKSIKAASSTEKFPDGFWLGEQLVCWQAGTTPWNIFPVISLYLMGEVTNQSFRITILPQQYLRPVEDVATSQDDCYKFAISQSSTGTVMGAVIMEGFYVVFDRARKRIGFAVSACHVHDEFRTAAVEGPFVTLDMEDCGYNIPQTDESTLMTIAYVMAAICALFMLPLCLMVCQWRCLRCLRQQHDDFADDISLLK
measurement_kind: % Inhibition (FS) (%)

- CCCC(=O)NCCN1Cc2cc(-c3ccccc3C)ccc2N=C1N: 69
- NC1=Nc2ccc(Oc3ccccc3)cc2CN1Cc1cccc(C(=O)N2CCCCC2)c1: 39

(1) CN(C(=O)CCC(c1ccc(Cl)cc1)N1Cc2cc(Oc3ccccc3)ccc2N=C1N)C1CCCCC1 (centres unmarked)
(2) COc1cccc(Nc2ccc3c(c2)CN(Cc2cccc(C(=O)N(C)C4CCCCC4)c2)C(N)=N3)c1
Challenge: Input pair: 1 , 2 . Output: entry with lower % Inhibition (FS). In your reply, give the label of the chosen option.
Response given: 2
(2: 33%, 1: 76%)

----------
target: β-secretase (BACE) (Homo sapiens); construct: purchased Panvera; assay: BACE FS1 % Inhibition Assay; type: biochemical; conditions: 3 μM compound; FS1 substrate; read-out: % Inhibition (FS)
measurement_kind: inhibition at 3 µM (%)

* CN(C(=O)CC[C@@H](C1CCOCC1)N1Cc2cc(Oc3ccccc3)ccc2N=C1N)[C@H]1CC[C@@H](C(=O)O)CC1 [Compound 745] | 114
* CN(C(=O)CC[C@@H](C1CCCCC1)N1Cc2cc(Oc3ccccc3)ccc2N=C1N)C1CCC(=O)CC1 [Compound 711] | 113
* COC(=O)[C@H]1CC[C@H](NC(=O)CC[C@@H](C2CCOCC2)N2Cc3cc(Oc4ccccc4)ccc3N=C2N)CC1 [Compound 747] | 104

----------
# % Inhibition (FS) values compiled below
target: β-secretase (BACE) (Homo sapiens); construct: purchased Panvera; test: BACE FS1 % Inhibition Assay; type: biochemical; settings: 1 μM test compound

* CC(=O)Nc1ccc(C(=O)NCCN2Cc3cc(-c4cccc(CO)c4)ccc3N=C2N)cc1 [Compound 593] | <30%
* Cc1cccc(Sc2ccc3c(c2)CN(Cc2cccc(C(=O)N(C)C4CCCCC4)c2)C(N)=N3)c1 [Compound 405] | 106%
* Cc1ccc(-c2ccc3c(c2)CN(CCNC(=O)C2CCCCC2)C(N)=N3)cc1 [Compound 628] | <30%
* CCCC(CCC)C(=O)N1CCC(CN2Cc3cc(Oc4ccccc4)ccc3N=C2N)CC1 [Compound 526] | 36%
* CC(C)Oc1ccc2c(c1)CN(Cc1cccc(C(=O)N(C)C3CCCCC3)c1)C(N)=N2 [Compound 519] | <30%

Challenge: What does the record list as % Inhibition (FS) for CCCC(CCCC(=O)N(CC)C1CCCCC1)N1Cc2cc(Oc3ccccc3)ccc2N=C1N (centres unmarked) [Compound 105] ?
Response given: <30%

Challenge: And the next one, COc1ccc(F)cc1-c1ccc2c(c1)CN(CCNC(=O)C1CCCCC1)C(N)=N2 [Compound 631] ?
Response given: <30%

Challenge: And the next one, COc1ccccc1-c1ccc2c(c1)CN(CCNC(=O)CCN)C(N)=N2 [Compound 493] ?
Response given: <30%

Challenge: And the next one, NC1=Nc2ccc(Oc3ccccc3)cc2CN1C(CNC(=O)CC1CCCC1)C1CCCCC1 (centres unmarked) [Compound 311] ?
Response given: 108%

Challenge: And the next one, NC1=Nc2ccc(Oc3ccccc3)cc2CN1CCNC(=O)c1ccc(-c2ccccc2)cc1 [Compound 195] ?
Response given: <30%

Challenge: And the next one, CCCCC(CC)C(=O)NCC(C1CCCCC1)N1Cc2cc(Oc3ccccc3)ccc2N=C1N (centres unmarked) [Compound 303] ?
Response given: 70%

Challenge: And the next one, NC1=Nc2ccc(Oc3ccccc3)cc2CN1Cc1cccc(CNC(=O)C2CCCCC2)c1 [Compound 306] ?
Response given: <30%

----------
target: β-secretase (BACE) (Homo sapiens, UniProt P56817); construct: purchased Panvera; assay: BACE % Inhibition Assay ((Aedens)-[…]-(Dabcyl K-amide) substrate); type: biochemical; settings: 1 μM compound; % error ±10%
measurement_kind: % Inhibition (%)

The examples below pair each entry with its known result.
• CC(C)(C)C(=O)NCC(C1CCCCC1)N1Cc2cc(Oc3ccccc3)ccc2N=C1N (centres unmarked) = 66
• CCCC(CNC(=O)C1CCCCC1)N1Cc2cc(Oc3ccccc3)ccc2N=C1N (centres unmarked) = 101
• NC1=Nc2ccc(Oc3ccccc3)cc2CN1C(CNC(=O)C1CCCCC1)c1ccccc1 (centres unmarked) = 93

(1) NC1=Nc2ccc(Oc3ccccc3)cc2CN1C(CNC(=O)CCC1CCCC1)C1CCCCC1 (centres unmarked)
(2) NC1=Nc2ccc(Oc3ccccc3)cc2CN1C(CNC(=O)C1(c2ccc(Cl)cc2)CCCC1)C1CCCCC1 (centres unmarked)
Challenge: Input pair: 1 , 2 . Output: entry with lower % Inhibition. In your reply, give the label of the chosen option.
Response given: 2

----------
Target: β-secretase (BACE) (Homo sapiens)
Construct: purchased Panvera
Test: BACE FS1 % Inhibition Assay
Format: biochemical
Details: 0.3 μM compound; FS1 substrate; 0.3 µM
Method: The following reagents were used in this assay: sodium acetate, PEG8000 (Sigma), DMSO, HEPES, FS1 substrate [[…]] […] The FS1-substrate stock solution was prepared in DMSO as a 10 mg/mL solution. The FS1-substrate working solution was prepared by diluting the 10 mg/mL stock solution with substrate assay buffer to a final concentration of 300 μg/mL. […] For test compounds, % inhibition was determined at each concentration as follows: [formula]
measurement_kind: % Inhibition (FS) (%)

(I) CN(C(=O)CC[C@@H](C1CCOCC1)N1Cc2cc(Oc3ccccc3)ccc2N=C1N)[C@H]1CC[C@@H](C(=O)O)CC1 [Compound 745]
(II) CN(C(=O)CC[C@@H](C1CCOCC1)N1Cc2cc(Oc3ccccc3)ccc2N=C1N)[C@H]1CC[C@@H](C(=O)O)CC1 [Compound 748]
Challenge: Of the two listed items, I and II , which carries the larger % Inhibition (FS) figure? In your reply, give the label of the chosen option.
Response given: I
(I: 115%, II: 20%)

----------
biological target: β-secretase (BACE) (Homo sapiens, UniProt P56817); construct: purchased Panvera; experiment: BACE FS1 % Inhibition Assay; type: biochemical; details: 0.3 μM test compound
# % Inhibition (FS) values compiled below

- Cc1ccccc1-c1ccc2c(c1)CN(CCNC(=O)C1CCC1)C(N)=N2: 56%
- COc1cccc(OC)c1Oc1ccc2c(c1)CN(CCC(=O)NC1C3CC4CC(C3)CC1C4)C(N)=N2 (stereo not shown): <30%

Challenge: Quick check: % Inhibition (FS) on β-secretase (BACE) (Homo sapiens, UniProt P56817), item CCCC(CCC)C(=O)N1CCCCC(N2Cc3cc(Oc4ccccc4)ccc3N=C2N)C1 (stereo not shown) ?
Response given: <30%

Challenge: And the next one, CN(C(=O)c1cccc(CN2Cc3cc(C=Cc4ccccc4)ccc3N=C2N)c1)C1CCCCC1 ?
Response given: <30%

Challenge: And the next one, NC1=Nc2ccc(Oc3ccccc3)cc2CN1C1CCCCN(C(=O)C23CC4CC(CC(C4)C2)C3)C1 (stereo not shown) ?
Response given: <30%

Challenge: And the next one, CCCCC(CC)C(=O)NCC(C1CCCCC1)N1Cc2cc(Oc3ccccc3)ccc2N=C1N (stereo not shown) ?
Response given: <30%

Challenge: And the next one, NC1=Nc2ccc(Oc3ccccc3)cc2CN1C(CC(=O)NC1C2CC3CC(C2)CC1C3)C1CCCCC1 (stereo not shown) ?
Response given: <30%

Challenge: And the next one, Cc1cccc(Nc2ccc3c(c2)CN(Cc2cccc(C(=O)N(C)C4CCCCC4)c2)C(N)=N3)c1 ?
Response given: <30%

Challenge: And the next one, CN(C(=O)CCC(C1CCOCC1)N1Cc2cc(Oc3ccccc3)ccc2N=C1N)C1CCCCC1 (stereo not shown) ?
Response given: 119%

Challenge: And the next one, CCCC(CCC)C(=O)N1CCC(CN2Cc3cc(Oc4ccccc4)ccc3N=C2N)CC1 ?
Response given: <30%

Challenge: And the next one, CCCC(=O)NCCN1Cc2cc(-c3ccccc3Cl)ccc2N=C1N ?
Response given: 31%

Challenge: And the next one, CCC[C@H](CNC(=O)CCC(C)C)N1Cc2cc(Oc3ccccc3)ccc2N=C1N ?
Response given: 101%
